- assay.method.text: inhibition of endothelial tube formation, primary screen, imaging, VEGF stimulated, CD31 staining, tube area, NPC library (AID 1117340)
- condition.notes: VEGF-stimulated ADSC/ECFC co-culture, at 10 µM
Calls of active or inactive are those of the source.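 The calls were made as follows: active = compound that reduces growth-factor-driven endothelial tube area in a mixed cell culture, no cutoff stated; inactive = the rest.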
Would you mind answering with one of these outcomes? active, inactive

Asked: Recorded test call requested for `COc1ccc(C(=O)N2CCN(CC(=O)N3CCOCC3)CC2)cc1`
Given back: inactive

Asked: Recorded test call requested for `CCCCCCCCCCC[C@@H](C[C@@H]1OC(=O)[C@H]1CCCCCC)OC(=O)[C@H](CC(C)C)NC=O`
Given back: active

Asked: Recorded test call requested for CCCNC(C)C(=O)Nc1ccccc1C (stereo unspecified)
Given back: inactive

Asked: Recorded test call requested for `NNc1nnc(NN)c2ccccc12`
Given back: active

Asked: Recorded test call requested for `O=[N+]([O-])c1ccc(Oc2ccc(N=C=S)cc2)cc1`
Given back: active

Asked: Recorded test call requested for `Cc1ccc2ccc(Cl)cc2n1`
Given back: inactive
